- Experiment: in vitro
- Test Settings: African green monkey
The threshold is 300 µM. Values of CC50 beneath it are tagged TRUE; values meeting or exceeding it are tagged FALSE.

>  <Compound>
CC(C)C(=O)OC[C@H]1O[C@@H](n2ccc(NO)nc2=O)[C@H](O)[C@@H]1O [Molnupiravir]

>  <Group Label>
TRUE

$$$$
>  <Compound>
Nc1nc(NC2CC2)c2ncn([C@H]3C=C[C@@H](CO)C3)c2n1 [Abacavir]

>  <Group Label>
FALSE

$$$$

Req: Here's an entry: NC(=O)c1nc(F)c[nH]c1=O [Favipiravir] . Is its CC50 below 300 µM?
Resp: TRUE

Req: Lab log: compare recorded CC50 with 300 µM; is it strictly lower for Nc1ccn([C@@H]2CS[C@H](CO)O2)c(=O)n1 [Lamivudine] ?
Resp: FALSE

Req: Regarding Cc1cn([C@H]2C[C@H](N=[N+]=[N-])[C@@H](CO)O2)c(=O)[nH]c1=O [Zidovudine] , kindly confirm whether its CC50 is beneath 300 µM.
Resp: TRUE

Req: # TODO verify CC50 < 300 µM strictly for this compound: CC(C)[C@H](N)C(=O)OCCOCn1cnc2c(=O)[nH]c(N)nc21 [Valaciclovir]
Resp: FALSE

Req: Does this compound meet the criterion CC50 < 300 µM? NC12CC3CC(CC(C3)C1)C2 [Amantadine]
Resp: FALSE

Req: Please check: CC50 for CC(C)OC(=O)[C@H](C)N[P@](=O)(OC[C@H]1O[C@@H](n2ccc(=O)[nH]c2=O)[C@](C)(F)[C@@H]1O)Oc1ccccc1 [Sofosbuvir] , strictly under 300 µM or not?
Resp: TRUE
